run description: Enzymatic stability in MDA-MB-231 cell homogenates
reported conditions: human, MDA-MB-231 breast cancer cell homogenate
measurement name: AUC(0-t) at 4.03 mM (µg·h/mL)
Number in µg·h/mL, nothing else.

compound	measurement name	number
CC(C)C[C@H](NC(=O)CNC(=O)[C@H](Cc1ccc(O)cc1)NC(=O)[C@H](CO)NC(=O)[C@H](Cc1c[nH]c2ccccc12)NC(=O)[C@H](Cc1cnc[nH]1)NC(=O)[C@@H](N)CCC(=O)O)C(=O)N[C@@H](CCCNC(=N)N)C(=O)N1CCC[C@H]1C(=O)NCC(N)=O [Glu-GnRH, reference compound]	AUC(0-t) at 4.03 mM	20000

Now turn to the next compound.
input: For the compound shown here, CCCCCCCCCCCCCCCC(=O)Oc1ccc(C[C@H](NC(=O)[C@H](CO)NC(=O)[C@H](Cc2c[nH]c3ccccc23)NC(=O)[C@H](Cc2c[nH]cn2)NC(=O)[C@@H](N)CCC(=O)O)C(=O)NCC(=O)N[C@@H](CC(C)C)C(=O)N[C@@H](CCCNC(=N)N)C(=O)N2CCC[C@H]2C(=O)NCC(N)=O)cc1 [TPGnRH, Tyrosine (O-Palmitoyl)-Glu-GnRH] , give the reported AUC(0-t) at 4.03 mM.
output: 105000

====

run description: physchem
reported conditions: aqueous buffer
measurement name: solubility (µg/mL)
Give the value, in units of µg/mL, as a plain number.

input: Which value of solubility has been reported for CC(=O)O[C@H]1C(=O)[C@@]2(C)[C@H]([C@H](OC(=O)c3ccccc3)[C@]3(O)C[C@H](OC(=O)[C@H](O)[C@@H](NC(=O)c4ccccc4)c4ccccc4)C(C)=C1C3(C)C)[C@]1(OC(C)=O)CO[C@@H]1C[C@@H]2O [PAX, Paclitaxel, reference compound] in the records?
output: 0.92

====

run description: in vivo
reported conditions: male, BALB/c, mouse, brain, iv, 35 mg/kg
measurement name: tissue level at time at 5 min
Just so you know, I need the unit written after the number.

input: So what's the measured tissue level at time at 5 min for this one? `CCCCCCCCCCCCCCCC(=O)Oc1ccc(C[C@H](NC(=O)[C@H](CO)NC(=O)[C@H](Cc2c[nH]c3ccccc23)NC(=O)[C@H](Cc2c[nH]cn2)NC(=O)[C@@H](N)CCC(=O)O)C(=O)NCC(=O)N[C@@H](CC(C)C)C(=O)N[C@@H](CCCNC(=N)N)C(=O)N2CCC[C@H]2C(=O)NCC(N)=O)cc1`
output: 3080 ng/g

====

run description: in vivo
reported conditions: male, BALB/c, mouse, plasma, iv, 35 mg/kg
measurement name: level at 5 min
I'd appreciate it if you wrote the number followed by its unit.

input: Fill in the blank: the reported level at 5 min of CCCCCCCCCCCCCCCC(=O)Oc1ccc(C[C@H](NC(=O)[C@H](CO)NC(=O)[C@H](Cc2c[nH]c3ccccc23)NC(=O)[C@H](Cc2c[nH]cn2)NC(=O)[C@@H](N)CCC(=O)O)C(=O)NCC(=O)N[C@@H](CC(C)C)C(=O)N[C@@H](CCCNC(=N)N)C(=O)N2CCC[C@H]2C(=O)NCC(N)=O)cc1 [TPGnRH, Tyrosine (O-Palmitoyl)-Glu-GnRH] is ____.
output: 545 µg/mL

====

run description: in vivo
reported conditions: male, BALB/c, mouse, brain, iv, 35 mg/kg
measurement name: tissue level at time at 1 h

input: Entry `CCCCCCCCCCCCCCCC(=O)Oc1ccc(C[C@H](NC(=O)[C@H](CO)NC(=O)[C@H](Cc2c[nH]c3ccccc23)NC(=O)[C@H](Cc2c[nH]cn2)NC(=O)[C@@H](N)CCC(=O)O)C(=O)NCC(=O)N[C@@H](CC(C)C)C(=O)N[C@@H](CCCNC(=N)N)C(=O)N2CCC[C@H]2C(=O)NCC(N)=O)cc1` : reported tissue level at time at 1 h = ?
output: 3470 ng/g

====

run description: Enzymatic stability in rat plasma
reported conditions: male, Wistar, rat, 50% (v/v) rat plasma
measurement name: remaining at 8 h, 4.03 mM

input: Consider the compound `CCCCCCCCCCCCCCCC(=O)Oc1ccc(C[C@H](NC(=O)[C@H](CO)NC(=O)[C@H](Cc2c[nH]c3ccccc23)NC(=O)[C@H](Cc2c[nH]cn2)NC(=O)[C@@H](N)CCC(=O)O)C(=O)NCC(=O)N[C@@H](CC(C)C)C(=O)N[C@@H](CCCNC(=N)N)C(=O)N2CCC[C@H]2C(=O)NCC(N)=O)cc1` and give its measured remaining at 8 h, 4.03 mM.
output: > 80%

====

C0 at 4.03 mM values, listed per item
run description: Enzymatic stability in MDA-MB-231 cell homogenates
reported conditions: human, MDA-MB-231 breast cancer cell homogenate
Respond with the bare value in µg/mL.

compound	C0 at 4.03 mM (µg/mL)
CC(C)C[C@H](NC(=O)CNC(=O)[C@H](Cc1ccc(O)cc1)NC(=O)[C@H](CO)NC(=O)[C@H](Cc1c[nH]c2ccccc12)NC(=O)[C@H](Cc1cnc[nH]1)NC(=O)[C@@H](N)CCC(=O)O)C(=O)N[C@@H](CCCNC(=N)N)C(=O)N1CCC[C@H]1C(=O)NCC(N)=O [Glu-GnRH, reference compound]	1420

API: the following record is the query input.
input: Report C0 at 4.03 mM for `CCCCCCCCCCCCCCCC(=O)Oc1ccc(C[C@H](NC(=O)[C@H](CO)NC(=O)[C@H](Cc2c[nH]c3ccccc23)NC(=O)[C@H](Cc2c[nH]cn2)NC(=O)[C@@H](N)CCC(=O)O)C(=O)NCC(=O)N[C@@H](CC(C)C)C(=O)N[C@@H](CCCNC(=N)N)C(=O)N2CCC[C@H]2C(=O)NCC(N)=O)cc1` please.
output: 710

Measured values drawn from patent US20210038730A1 for this set.
